B1: Pistol ribozyme (parent)
chain: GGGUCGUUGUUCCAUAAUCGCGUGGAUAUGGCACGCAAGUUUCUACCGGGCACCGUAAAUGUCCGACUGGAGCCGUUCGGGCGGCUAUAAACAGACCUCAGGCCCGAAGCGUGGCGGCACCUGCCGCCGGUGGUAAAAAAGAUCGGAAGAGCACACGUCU

Variants of: B1
testMethodNotes: aptazyme ON/OFF ratio, guanine; higher = stronger switching; co-transcriptional cleavage with and without guanine
observationType: aptazyme ON/OFF ratio
Numbers only.

U7A U8G U10G U11A C12A C13A | 1.55

Return reported aptazyme ON/OFF ratio values for all items listed beneath this line.
1. U8A G9U U10G U11C C13G
2. U8C G9C U10A C12A C13G
3. U7C U8G G9U C13U
4. U7C U8C G9C U10G C13G

1: 1.04; 2: 1.15; 3: 1.55; 4: 1.1

// each variant listed below needs its aptazyme ON/OFF ratio
1. U7G U8A G9A U10G U11A C12G C13A
2. U8C G9U U10G C12U C13G

1.04
1.11
